- System Tested: human S1P3 receptor (Homo sapiens)
- Construct: expressed in transfected cells
- Sequence (Q99500 whole entry): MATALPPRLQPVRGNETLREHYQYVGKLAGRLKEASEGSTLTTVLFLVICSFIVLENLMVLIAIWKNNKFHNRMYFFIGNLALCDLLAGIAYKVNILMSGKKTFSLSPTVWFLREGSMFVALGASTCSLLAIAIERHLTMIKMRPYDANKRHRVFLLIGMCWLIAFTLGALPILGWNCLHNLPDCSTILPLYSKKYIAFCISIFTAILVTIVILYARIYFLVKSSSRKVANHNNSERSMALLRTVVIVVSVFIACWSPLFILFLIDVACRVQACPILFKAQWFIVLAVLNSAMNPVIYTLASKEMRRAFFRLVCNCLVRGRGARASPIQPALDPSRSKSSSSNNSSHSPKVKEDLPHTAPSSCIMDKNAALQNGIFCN
- Protocol Notes: FLIPR Ca+2 response assay, activation of human S1P3 receptor in T24 cells
- Format: cell-based
- Particulars: T24 cells stably expressing human S1P3; tested 0.61 nM to 10,000 nM
Measured Metric: EC50 (nM)
Give just the number in nM; leave the unit off.

-- ask Quick one: EC50 for `CCc1ccc(-c2ccc(C(=O)OC)nc2-c2ccncc2)cc1` ?
-- reply 340

====

- System Tested: human S1P3 receptor (Homo sapiens)
- Construct: expressed in transfected cells
- Protocol Notes: FLIPR Ca+2 response assay, activation of human S1P3 receptor in T24 cells
- Assay type: cell-based
- Particulars: T24 cells stably expressing human S1P3; tested 0.61 nM to 10,000 nM; NA = Not Active
Measured Metric: pEC50
pEC50 (log units): -log10 of the concentration in mol/L.

-- ask Please give the measured pEC50 for this compound: `COCc1ccc(-c2ccccc2)c(-c2ccccc2)n1`
-- reply 5.62

-- ask Please report the recorded pEC50 for `CCC(=O)c1ccc(-c2ccccc2)c(-c2ccc(C(F)(F)F)cc2)n1` .
-- reply 5.59

-- ask // query pEC50 value for entry CCOC(=O)c1ccc(-c2ccccc2)c(-c2ccccc2)n1 [Example 21, Ethyl 5,6-diphenylpyridine-2-carboxylate]
-- reply 5.74

-- ask Item under review: `CCc1ccc(-c2nnc(C(=O)OC)nc2-c2ccccc2)cc1` . Reported pEC50?
-- reply 5.64

-- ask Which pEC50 value is on record for `CCOC(=O)c1ccc(-c2ccccc2)c(-c2ccc(CC)cc2)n1` ?
-- reply 5.54

-- ask Query: pEC50; subject: `CCOC(=O)c1ccc(-c2ccccc2)c(-c2ccc(C)cc2)n1`
-- reply 5.43

-- ask Look up pEC50 for this compound: `CCC(=O)c1cnc(-c2ccccc2)c(-c2ccccc2)n1`
-- reply 5.36

-- ask Request the reported pEC50 associated with `CCOC(=O)c1nnc(-c2ccc(C)cc2)c(-c2ccccc2)n1`
-- reply 5.54
